test: In vitro human hepatocytes clearance assay; settings: both, human, cryopreserved human hepatocytes (suspension), human hepatocytes Clint (µL/min/10^6cells), mixed gender human hepatocytes, incubation up to 100 min
assay_readout: hepatocyte CLint at 1 µM (µL/min/1e6 cells)

Please review the entries below; each comes with its answer.
smiles_notation: C=CC(=O)Nc1cc(Nc2nccc(Nc3cc(Cl)c(F)cc3C(C)(C)O)n2)c(OC)cc1N1CC[C@@H](N(C)C)C1
hepatocyte CLint at 1 µM [µL/min/1e6 cells]: 3.29

smiles_notation: C=CC(=O)Nc1cc(Nc2nccc(Nc3cc(Cl)c(F)cc3C(C)(C)O)n2)c(OC)cc1N1C[C@@H](C)C[C@@H]1CN(C)C
hepatocyte CLint at 1 µM [µL/min/1e6 cells]: 8.57

smiles_notation: C=CC(=O)Nc1cc(Nc2nccc(Nc3cc(Cl)c(F)cc3C(C)(C)O)n2)c(OC)cc1N1C[C@@H](F)[C@@H](N(C)C)C1
hepatocyte CLint at 1 µM [µL/min/1e6 cells]: 7.36

(a) C=CC(=O)Nc1cc(Nc2nccc(Nc3cc(Cl)c(Cl)cc3C(C)(C)O)n2)c(OC)cc1N1CC[C@@H](N(C)C)C1
(b) C=CC(=O)Nc1cc(Nc2ncnc(Nc3cc(Cl)c(F)cc3C(C)(C)O)n2)c(OC)cc1N(C)CCN(C)C
(c) [2H]C([2H])([2H])N(CCN(C)c1cc(OC)c(Nc2ncnc(Nc3cc(F)c(Cl)cc3C(C)(C)O)n2)cc1NC(=O)C=C)C([2H])([2H])[2H]
-- ask Endpoint returns the given compounds ordered by ascending hepatocyte CLint at 1 µM. Please, when replying, give the labels in the order that was requested.
-- reply a, b, c
